tested on: PPARg homodimer (NR concentration 180 nM); test: PBM binding z-score (relative to random genomic background probes); higher = stronger binding; sequences stand for … in GC…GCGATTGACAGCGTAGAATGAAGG
Please mark criterion met if the recorded PBM binding z-score is equal to or greater than 0.8, and criterion not met if it falls below.

Query: Form field: PBM binding z-score at least 0.8? Entry: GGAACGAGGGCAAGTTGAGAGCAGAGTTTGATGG
Response: criterion not met

Query: Form field: PBM binding z-score at least 0.8? Entry: CCTCGGCGGACAACAGGAGGTCAGAGCTGCCAGA
Response: criterion not met

Query: Form field: PBM binding z-score at least 0.8? Entry: ACTTACGGGTCAACGAGATTATAGCACGCGTATA
Response: criterion met

Query: Form field: PBM binding z-score at least 0.8? Entry: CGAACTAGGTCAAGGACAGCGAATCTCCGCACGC
Response: criterion met

Next up:
Query: Form field: PBM binding z-score at least 0.8? Entry: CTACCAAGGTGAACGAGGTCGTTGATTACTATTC
Response: criterion met

* * *

system: PPARg:RXRa 30nM:10nM, anti-RXR (NR concentration 30 nM, RXRa partner concentration 10 nM); assay: PBM binding z-score (relative to random genomic background probes); higher = stronger binding; sequences stand for … in GC…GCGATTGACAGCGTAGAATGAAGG
readout kind: PBM binding z-score

Query: Specify PBM binding z-score for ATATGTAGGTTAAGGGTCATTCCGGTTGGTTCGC and stop.
Response: 10.2

Others:
Query: Specify PBM binding z-score for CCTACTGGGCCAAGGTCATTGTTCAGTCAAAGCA and stop.
Response: 1.73

Query: Specify PBM binding z-score for TAAACAGGGTCAAAGGCCAGAGTACGAATGTCGA and stop.
Response: 6.91

Query: Specify PBM binding z-score for ATCGAAAGGACGACGAGGTGAGTATACACCGTTT and stop.
Response: 0.318

* * *

The reader will find reported PBM binding z-score values listed item by item below.
test system: RARb:RXRa (NR concentration 270 nM, RXRa partner concentration 90 nM); test: PBM binding z-score (relative to random genomic background probes); higher = stronger binding; sequences stand for … in GC…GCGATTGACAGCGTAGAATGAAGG
Give a plain numeric answer without units written out.

Example cases with answers are listed next.
Query: Specify PBM binding z-score for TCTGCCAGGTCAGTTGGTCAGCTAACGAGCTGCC and stop.
Response: 3.29

Query: Specify PBM binding z-score for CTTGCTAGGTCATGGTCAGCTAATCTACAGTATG and stop.
Response: 3.66

Query: Specify PBM binding z-score for CAAACTAGGTCACAGAGGTCATAGTCCGTGCGTA and stop.
Response: 5.27

Query: Specify PBM binding z-score for CCTCGGACGACAGAAGGTCAGAGCTGTCCGCTTT and stop.
Response: 2.67

Query: Specify PBM binding z-score for GCTAGTTGGTCAGTACAAGGTCACACACCGGTCG and stop.
Response: 3.36

Query: Specify PBM binding z-score for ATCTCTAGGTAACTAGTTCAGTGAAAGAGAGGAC and stop.
Response: 0.464

Query: Specify PBM binding z-score for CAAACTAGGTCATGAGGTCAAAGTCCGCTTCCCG and stop.
Response: 5.03

Query: Specify PBM binding z-score for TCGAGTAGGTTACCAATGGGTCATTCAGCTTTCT and stop.
Response: 1.77

Others:
Query: Specify PBM binding z-score for AGTATGAGGTTATACGTAGATCAGGGAAGAAAGT and stop.
Response: 1.58

Query: Specify PBM binding z-score for TCTCGGAGGACACGAAGGTTAGAGCTTTCCAGAG and stop.
Response: 1.88

Query: Specify PBM binding z-score for TCTTGTAGATCAAACAGGTTAAGAAAGCCTGAGT and stop.
Response: 0.288

Query: Specify PBM binding z-score for AGAACGGGGGCAATGAGTTGATAGCACGGGTGGC and stop.
Response: 3.02

Query: Specify PBM binding z-score for GCTTGTATATCAAGGTTAAGAAAGACTAAGCTAA and stop.
Response: 1.03

* * *

tested on: PPARg homodimer (NR concentration 180 nM); assay: PBM binding z-score (relative to random genomic background probes); higher = stronger binding; sequences stand for … in GC…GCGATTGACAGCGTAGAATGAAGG
Please mark t if the recorded PBM binding z-score is equal to or greater than 2, and f if it falls below.

Query: Form field: PBM binding z-score at least 2? Entry: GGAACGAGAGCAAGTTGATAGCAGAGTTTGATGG
Response: f

Query: Form field: PBM binding z-score at least 2? Entry: TCATATAGGTAAAAGGTGAAAGTAGGTGTGGTAA
Response: t

Query: Form field: PBM binding z-score at least 2? Entry: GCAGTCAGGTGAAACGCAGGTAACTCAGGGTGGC
Response: f

Query: Form field: PBM binding z-score at least 2? Entry: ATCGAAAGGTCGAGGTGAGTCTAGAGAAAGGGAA
Response: f

Query: Form field: PBM binding z-score at least 2? Entry: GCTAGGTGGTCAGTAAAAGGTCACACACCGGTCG
Response: t

Others:
Query: Form field: PBM binding z-score at least 2? Entry: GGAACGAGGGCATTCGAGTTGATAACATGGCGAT
Response: f

* * *

The reader will find reported PBM binding z-score values listed item by item below.
system: RARb:RXRa (NR concentration 270 nM, RXRa partner concentration 90 nM); assay: PBM binding z-score (relative to random genomic background probes); higher = stronger binding; sequences stand for … in GC…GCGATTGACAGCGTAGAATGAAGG
Give a plain numeric answer without units written out.

Example cases with answers are listed next.
Query: Specify PBM binding z-score for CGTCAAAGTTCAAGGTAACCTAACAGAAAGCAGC and stop.
Response: 5.37

Query: Specify PBM binding z-score for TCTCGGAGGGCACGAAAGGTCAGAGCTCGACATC and stop.
Response: 4.79

Query: Specify PBM binding z-score for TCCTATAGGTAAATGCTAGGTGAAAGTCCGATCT and stop.
Response: 0.523

Query: Specify PBM binding z-score for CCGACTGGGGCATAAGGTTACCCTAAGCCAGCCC and stop.
Response: 1.26

Query: Specify PBM binding z-score for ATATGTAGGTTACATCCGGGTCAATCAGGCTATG and stop.
Response: 2.32

Query: Specify PBM binding z-score for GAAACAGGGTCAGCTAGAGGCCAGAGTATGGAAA and stop.
Response: 4.14

Others:
Query: Specify PBM binding z-score for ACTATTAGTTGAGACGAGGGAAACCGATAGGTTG and stop.
Response: -0.193

Query: Specify PBM binding z-score for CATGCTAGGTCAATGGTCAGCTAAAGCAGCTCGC and stop.
Response: 3.87

* * *

The reader will find reported PBM binding z-score values listed item by item below.
tested on: PXR:RXRa (NR concentration 270 nM, RXRa partner concentration 90 nM); assay: PBM binding z-score (relative to random genomic background probes); higher = stronger binding; sequences stand for … in GC…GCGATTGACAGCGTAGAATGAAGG
Give a plain numeric answer without units written out.

Query: Specify PBM binding z-score for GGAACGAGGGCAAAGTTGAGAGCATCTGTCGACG and stop.
Response: 1.42

Query: Specify PBM binding z-score for CGTCCAAGGTCAATGCTAGGTCAGTCAAAGCATT and stop.
Response: 4.84

Query: Specify PBM binding z-score for GCTTGTAGATCAAGGTTAGGAAAGACTAAGCTAA and stop.
Response: -0.276

Others:
Query: Specify PBM binding z-score for TCGAGTAGGTTACCAAGGGGGCATTCAGCTTTCT and stop.
Response: 2.98

Query: Specify PBM binding z-score for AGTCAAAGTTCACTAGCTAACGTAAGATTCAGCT and stop.
Response: 3.57

Query: Specify PBM binding z-score for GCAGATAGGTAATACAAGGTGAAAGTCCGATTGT and stop.
Response: 0.645

Query: Specify PBM binding z-score for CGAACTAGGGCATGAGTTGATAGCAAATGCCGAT and stop.
Response: -0.191

Query: Specify PBM binding z-score for GCGACTGGGGCAAAGCAGGTTACCAAAAGGTTGG and stop.
Response: 0.48

Query: Specify PBM binding z-score for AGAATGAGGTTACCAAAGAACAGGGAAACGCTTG and stop.
Response: 1.06

Query: Specify PBM binding z-score for GGATCGAGGGCAAAGTTGATAGCATCTGTCGACG and stop.
Response: 1.34

* * *

tested on: RARb homodimer (NR concentration 270 nM); assay: PBM binding z-score (relative to random genomic background probes); higher = stronger binding; sequences stand for … in GC…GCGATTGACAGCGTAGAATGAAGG
readout kind: PBM binding z-score
Give a plain numeric answer without units written out.

Example cases with answers are listed next.
Query: Look up and report measured PBM binding z-score (RARb homodimer (NR concentration 270 nM)) for the following sequence: TAGCCTAGGTCATGCGGGCCAGAATAGTGTCGGC
Response: 2.94

Query: Look up and report measured PBM binding z-score (RARb homodimer (NR concentration 270 nM)) for the following sequence: AGAATGAGGTTAAGATCGGGGAAACAGAATACAT
Response: 0.944

Query: Look up and report measured PBM binding z-score (RARb homodimer (NR concentration 270 nM)) for the following sequence: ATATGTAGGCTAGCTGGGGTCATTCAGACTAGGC
Response: 3.02

Query: Look up and report measured PBM binding z-score (RARb homodimer (NR concentration 270 nM)) for the following sequence: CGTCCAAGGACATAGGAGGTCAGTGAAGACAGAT
Response: 3.17

Query: Look up and report measured PBM binding z-score (RARb homodimer (NR concentration 270 nM)) for the following sequence: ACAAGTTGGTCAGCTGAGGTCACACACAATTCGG
Response: 4.58

Others:
Query: Look up and report measured PBM binding z-score (RARb homodimer (NR concentration 270 nM)) for the following sequence: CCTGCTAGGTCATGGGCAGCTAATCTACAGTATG
Response: 2.79

Query: Look up and report measured PBM binding z-score (RARb homodimer (NR concentration 270 nM)) for the following sequence: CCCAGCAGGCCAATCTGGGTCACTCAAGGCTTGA
Response: 2.53

Query: Look up and report measured PBM binding z-score (RARb homodimer (NR concentration 270 nM)) for the following sequence: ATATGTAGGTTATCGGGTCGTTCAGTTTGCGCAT
Response: 1.68

Query: Look up and report measured PBM binding z-score (RARb homodimer (NR concentration 270 nM)) for the following sequence: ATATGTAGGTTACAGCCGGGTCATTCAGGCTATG
Response: 2.93

Query: Look up and report measured PBM binding z-score (RARb homodimer (NR concentration 270 nM)) for the following sequence: GCTGCTAGGTCAACTGTTGGTCAGCTAAAGCTCG
Response: 3.66

Query: Look up and report measured PBM binding z-score (RARb homodimer (NR concentration 270 nM)) for the following sequence: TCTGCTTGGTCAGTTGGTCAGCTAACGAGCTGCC
Response: 0.226

Query: Look up and report measured PBM binding z-score (RARb homodimer (NR concentration 270 nM)) for the following sequence: TAACCAAGGTGAAGGTCGTTGATCCCTCTGTAGA
Response: 1.83
